Measured values drawn from patent US7897573B2 for this set.

Documented IC50 across a set of substances
Target: Human PAC1 Receptor (Homo sapiens)
Construct: expressed in transfected cells
Sequence (P41586 21-468): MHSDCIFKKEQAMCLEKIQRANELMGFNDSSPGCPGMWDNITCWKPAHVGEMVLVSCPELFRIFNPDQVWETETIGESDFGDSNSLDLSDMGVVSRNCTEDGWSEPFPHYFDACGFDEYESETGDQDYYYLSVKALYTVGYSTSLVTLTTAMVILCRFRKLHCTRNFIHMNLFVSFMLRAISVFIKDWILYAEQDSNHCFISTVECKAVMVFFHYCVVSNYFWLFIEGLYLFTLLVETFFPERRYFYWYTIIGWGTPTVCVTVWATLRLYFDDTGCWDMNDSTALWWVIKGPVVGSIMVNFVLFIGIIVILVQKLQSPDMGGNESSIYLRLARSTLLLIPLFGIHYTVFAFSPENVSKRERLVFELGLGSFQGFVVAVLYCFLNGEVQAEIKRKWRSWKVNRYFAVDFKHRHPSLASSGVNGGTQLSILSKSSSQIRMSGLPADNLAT
Test: Filter binding assay, 125I-labeled PACAP-27, membranes of cells transiently transfected with human PAC1
Details: 125I-labeled PACAP-27 tracer
Where no end group is shown, it is not given here.

Some entries whose results are on file:
- SUBSTANCE: "C6-HSDAVFTEQY(OMe)TOrnLRAibQLAAbuAibOrnyAibQSIOrnOrnGGPSSGAPPPC(PEG30K)C(PEG30K)-NH2 (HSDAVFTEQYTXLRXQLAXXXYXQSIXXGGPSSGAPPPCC; not fully specified (some residues, N-terminus, C-terminus); printed as C6-HSDAVFTEQY(OMe)TOrnLRAibQLAAbuAibOrnyAibQSIOrnOrnGGPSSGAPPPC(PEG30K)C(PEG30K)-NH2; cysteine pairing not given here) [Agonist P602]"
  IC50: "> 25000 nM"
- SUBSTANCE: "C6-HSDAVFTEQY(OMe)TOrnLRAibQVAAAibOrnYLQSIOrnOrnC(PEG20K)GGPSSGAPPPC(PEG20K)NH2 (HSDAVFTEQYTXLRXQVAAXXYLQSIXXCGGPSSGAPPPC; C6 acyl, two PEG20K, C-terminal amide; Synthetic sequence PEGylated VPAC2 receptor agonist) [Agonist P562]"
  IC50: "> 25000 nM"
- SUBSTANCE: "C6-HSDAVFTEQY(OMe)TOrnLRAibQVAAbuAibOrnYLQAibIOrnOrnGGPSSGAPPPC(PEG40K)-NH2 (HSDAVFTEQYTXLRXQVAXXXYLQXIXXGGPSSGAPPPC; C6 acyl, PEG40K on Cys, C-terminal amide; Synthetic sequence PEGylated VPAC2 receptor agonist) [Agonist P511]"
  IC50: "> 25000 nM"

# input for lookup
Q: I have this substance here, C6-HSDAVFTEQY(OMe)TOrnLRAibQLAAbuAibOrnYLQAibIOrnC(PEG20K)OrnGGPSSGAPPPC(PEG20K)-NH2 (HSDAVFTEQYTXLRXQLAXXXYLQXIXCXGGPSSGAPPPC; C6 acyl, two PEG20K, C-terminal amide; Synthetic sequence PEGylated VPAC2 receptor agonist) [Agonist P553] , and I need its recorded IC50.
A: > 25000 nM
